- Test system: NCI-H847 (Small Cell Lung Carcinoma)
- measurement_description: combination Emax (second highest fraction inhibited in the dose matrix, 72 h); higher = more inhibition; extreme values may be limits of the assay
measured_quantity: combination Emax
Answers are plain numbers.

Sample answers from the record:
molecule	assay_result
Cc1cc2ncnn2cc1Nc1ncc2c(n1)n(C1CCOCC1)c(=O)n2C [AZD7648] + C[C@@H]1COCCN1C2=NC(=NC(=C2)C3(CC3)[S@](=N)(=O)C)C4=C5C=CNC5=NC=C4 [AZD6738] (first compound max 10 µM, 7x7, partner max 10 µM)	1
CC1(C)CCC(CN2CCN(c3ccc(C(=O)NS(=O)(=O)c4ccc(NCC5CCOCC5)c([N+](=O)[O-])c4)c(Oc4cnc5[nH]ccc5c4)c3)CC2)=C(c2ccc(Cl)cc2)C1 [Venetoclax] + Cc1cc2ncnn2cc1Nc1ncc2c(n1)n(C1CCOCC1)c(=O)n2C [AZD7648] (first compound max 1 µM, 7x7, partner max 10 µM)	0.735
CN(C)CCCOc1ccc(-c2ccc3ncc4c(c3c2)n(C2CCOCC2)c(=O)n4C)cn1 [AZD0156] + C=CCn1c(=O)c2cnc(Nc3ccc(N4CCN(C)CC4)cc3)nc2n1-c1cccc(C(C)(C)O)n1 [AZD1775] (first compound max 1 µM, partner max 1 µM)	0.971
Cc1c2c(nn1C)CSCc1cc(n(C)n1)CSc1cc(c3ccccc3c1)OCCCc1c(C(=O)O)n(C)c3c-2c(Cl)ccc13 [AZD5991] + Cc1cc2ncnn2cc1Nc1ncc2c(n1)n(C1CCOCC1)c(=O)n2C [AZD7648] (first compound max 1 µM, 7x7, partner max 10 µM)	0.877
COc1cccc(OCCCN)c1-c1cc(Nc2cnc(C#N)cn2)n[nH]1 [Prexasertib] + CN(C)CCCOc1ccc(-c2ccc3ncc4c(c3c2)n(C2CCOCC2)c(=O)n4C)cn1 [AZD0156] (first compound max 1 µM, 7x7, partner max 1 µM)	1
CN(CCO)CC[C@H](CSc1ccccc1)Nc1ccc(S(=O)(=O)NC(=O)c2ccc(N3CCC([C@@H](O)c4ccccc4-c4ccc(Cl)cc4)CC3)cc2)cc1S(=O)(=O)C(F)(F)F [AZD4320] + C1CN(CCC1(C(=O)N[C@@H](CCO)C2=CC=C(C=C2)Cl)N)C3=NC=NC4=C3C=CN4 [Capivasertib] (first compound max 1 µM, 7x7, partner max 3 µM)	1

// recorded combination Emax for C[C@@H]1COCCN1c1cc(C2([S@](C)(=N)=O)CC2)nc(-c2ccnc3[nH]ccc23)n1 [AZD6738] + O=C(c1cc(Cc2n[nH]c(=O)c3ccccc23)ccc1F)N1CCN(C(=O)C2CC2)CC1 [Olaparib] (first compound max 10 µM, 7x7, partner max 10 µM) : 0.978

The measurements presented in this section are drawn from the supplement of paper PMC11061612.
